Value source: the supplement of paper PMC7125110

B1: glmS ribozyme (parent)
chain: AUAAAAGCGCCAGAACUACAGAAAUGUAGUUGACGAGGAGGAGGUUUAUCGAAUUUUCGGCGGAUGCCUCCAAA

- Variants of: B1
- Assay explanation: self-cleavage kobs at 10000 uM GlcN6P; higher = faster cleavage; RNA array
- Condition context: with glucosamine-6-phosphate
This sample holds only a part of the variants without activity.
Kindly state self-cleavage kobs at 10000 uM GlcN6P for each of the entries shown.
One number for each entry, in s⁻¹.

Give self-cleavage kobs at 10000 uM GlcN6P for each of the items listed below.
1. U55C C71A
2. A14C U47A
3. A15U U65G
4. U31C A64G
5. C16A U45C
6. C11U A52U
7. C16G C67A C70U
8. A39U U69C

0.000283
0.00348
0.00139
0.00363
7.72e-05
4.77e-05
9.5e-05
0.0107

Find the recorded self-cleavage kobs at 10000 uM GlcN6P belonging to A14G G32U and report it.
0.00329
